target system: RanGTP-importin-beta complex (human Ran / KPNB1)
protocol notes: disruptors of RanGTP/KPNB1 binding – biochemical, FRET, CFP/YFP, cell-free homogeneous, confirmation (AID 2823)
run parameters: CFP-Ran/YFP-importin-beta FRET ratio
The source made the active and inactive calls. How the calls were made is not given here.
Just give me one of these, please: active, inactive

For orientation, consider the following solved cases.
>  <molecule>
COCCNC(=O)c1cnn2c(C(F)F)cc(-c3ccc(C)cc3)nc12

>  <label value>
active

$$$$
>  <molecule>
Cc1cc(N2C(=O)C(O)=C(C(=O)c3cc4ccccc4o3)C2c2cccc(Cl)c2)no1 (stereo not drawn)

>  <label value>
active

$$$$
>  <molecule>
O=C(O)COc1ccc(F)cc1Br

>  <label value>
inactive

$$$$
>  <molecule>
Cn1c(N/N=C/c2cc3ccccc3nc2Cl)nc2ccccc21

>  <label value>
inactive

$$$$
>  <molecule>
Cc1ccc(N=Cc2cc3c(cc2[N+](=O)[O-])OCO3)cc1[N+](=O)[O-]

>  <label value>
inactive

$$$$
>  <molecule>
CCN1/C(=C/C=C/c2sc3ccccc3[n+]2CC)Sc2ccccc21

>  <label value>
active

$$$$
>  <molecule>
CCCc1cc(=O)oc2c(CN(CC)CC)c(O)c(Cl)cc12

>  <label value>
active

$$$$
>  <molecule>
CCOc1ccc(NS(=O)(=O)c2ccc3c(c2)CCN3C(=O)CCC(=O)O)cc1

>  <label value>
inactive

$$$$

Ask | Each molecule tested received a call. Report the one for "N#Cc1c(N)n(CCNC(=O)c2ccc(Cl)cc2)c2nc3ccccc3nc12" .
Reply | active

Ask | Next: "Cn1cnnc1SCC(=O)c1cc2ccccc2oc1=O"
Reply | inactive

Ask | Next: Cc1cccn2c(=O)c(/C=C(\C#N)C(=O)NC3CCS(=O)(=O)C3)c(Oc3ccc(F)cc3)nc12 (stereo not drawn)
Reply | active

Ask | Next: Cc1ccc(C2=CC(c3ccccc3)n3ncnc3N2)c(C)c1 (stereo not drawn)
Reply | inactive

Ask | Next: "Cc1cc(/C=C2\C(=O)NC(=O)N(c3ccc(F)cc3)C2=O)c(C)n1-c1ccc(C(=O)O)cc1"
Reply | inactive

###

target system: RanGTP-importin-beta complex (human Ran / KPNB1)
protocol notes: disruptors of RanGTP/KPNB1 binding – biochemical, FRET, CFP/YFP, cell-free homogeneous, confirmation (AID 2823)
run parameters: CFP-Ran/YFP-importin-beta FRET ratio
Calls of active or inactive are those of the source. No rule for the calls is given here.
Reported IC50 values for a set of compounds

>  <structure notation>
COc1ccc(CCNC(=O)c2cc3c(=O)n4ccccc4nc3n(C3CCCCC3)c2=N)cc1OC

>  <target system>
RanGTP-importin-beta complex (human Ran / KPNB1)

>  <property name>
IC50

>  <result>
23.2 µM

$$$$
>  <structure notation>
N#C/C(=C\c1ccc(N2CCOCC2)o1)C(=O)NC1CCCCC1

>  <target system>
RanGTP-importin-beta complex (human Ran / KPNB1)

>  <property name>
IC50

>  <result>
2.76 µM

$$$$
>  <structure notation>
COC(=O)c1cccnc1NC(=S)NNC(=O)c1ccccc1

>  <target system>
RanGTP-importin-beta complex (human Ran / KPNB1)

>  <property name>
IC50

>  <result>
> 50 µM (inactive)

$$$$

Ask | Looking for the measured IC50 of "N#Cc1cc2cc3c(cc2nc1N1CCOCC1)OCO3" , can you help?
Reply | 12.2 µM

Ask | Next: "CCOC(=O)c1c(NC(=O)Nc2ccc(F)cc2)sc2c1CCN(C)C2"
Reply | > 50 µM (inactive)

Ask | Next: "Cc1c(OC(=O)N(C)C)ccc2c1O/C(=C\c1ccco1)C2=O"
Reply | 12.5 µM
